- assayNotes: protein stability index of a GFP-peptide fusion (yeast GPS) (PSI 1-4); higher = more stable; sorted into four equal gates, so the index is relative within each strain
- settings: san1∆
Each entry gets 0.0 if its protein stability index stays under 2, and 1.0 if its protein stability index is 2 or above.

Reference set (2 entries):
| entrySequence | class |
| --- | --- |
| VPHSHPSDMVIPDHLAE [SNF12] | 1.0 |
| PYFDYIFNDILAHVDQI [YJL039C/NUP192] | 1.0 |

Prompt line: Dear colleague, could you confirm whether VVDPKTSIEKSSEILSY [YML103C/NUP188] has protein stability index at or above 2?
Response line: 0.0

Prompt line: Now the sequence GFVRNSFFSGLSPPEFL [RPO31]
Response line: 1.0

Prompt line: And HPIRVLMASVILDSLPS [YDL116W/NUP84] ?
Response line: 0.0

Prompt line: Subsequent entry: LSFIQVRIDLGTIDKLQ [RPO31]
Response line: 1.0

Prompt line: Same again, this time with EKGNAKMIDFATLSKLK [SIR3]
Response line: 1.0

Prompt line: Queued: NGSSDASSLRFGNSLSN [YDL088C/ASM4]
Response line: 1.0

Prompt line: Request: ALSIADDASSAELLGRV [RPC53]
Response line: 1.0

Prompt line: Query YDGDTVTFSPTGRLFQV [PRE5] next
Response line: 1.0

Prompt line: Same read-out for GEHEKSNILLNSLTKYP [MED1] ?
Response line: 0.0

Prompt line: Can you handle KSLEVVNADTVGKTVKQ [NSL1] next?
Response line: 1.0

Prompt line: Then DSNESDDDVTPSTKVAS [YLR335W/NUP2] ?
Response line: 1.0

Prompt line: Also, RMLEEAIDHLKAELEKQ [YIL149C/MLP2] please.
Response line: 1.0

Prompt line: Next entry: LFGEKSILGKFCPIVEE [YCS4]
Response line: 0.0

Prompt line: Moving on to VASADYESQTFSSKNEW [PRP8]
Response line: 1.0

Prompt line: Moving on to the next sequence: ADYRLILTGTPLQNNLP [SNF2]
Response line: 0.0

Prompt line: Likewise for VLKEKDVPAYNVTSFMP [SRB8] ?
Response line: 1.0

Prompt line: Likewise for TRKAMLDPLEVHMLDFP [PRP8] ?
Response line: 1.0

Prompt line: Another: MPPKQQLSKAAKAAAAL [RPS25A]
Response line: 0.0

Prompt line: # iterate: SNTMYSVRLFSFLDPLN [YJL039C/NUP192]
Response line: 0.0

Prompt line: Next record, please: KAPLQPNSERETDHANT [IRR1]
Response line: 1.0

Prompt line: And the next one, KARSPGIAKPNAIQTEV [SIR4] ?
Response line: 1.0

Prompt line: # repeat for DNNTASNMLGSNEDVMM [RPB3]
Response line: 1.0

Prompt line: Param item: ISKSLTFSQESGLMVIL [RRI2]
Response line: 1.0

Prompt line: Next entry: LATDVTTLNEMFRYKTN [PUP3]
Response line: 0.0

====

protein stability index reference
- assayNotes: protein stability index of a GFP-peptide fusion (yeast GPS) (PSI 1-4); higher = more stable; sorted into four equal gates, so the index is relative within each strain
- settings: san1∆
Give a plain numeric answer without units written out.

Some sequences with known protein stability index results, for comparison:
| entrySequence | valueType | reading |
| --- | --- | --- |
| FTNRSTMMANFEEWIKM [BRN1] | protein stability index | 2.32 |
| YNSVRPFGVSTIFGGVD [PRE10] | protein stability index | 2.59 |
| NRERFISKLFLRGDSVI [SMD2] | protein stability index | 1.51 |
| SMNKELIAIVSKLLQTT [NUT1] | protein stability index | 2.28 |
| LLKLERKKTEAVARLKS [SNF2] | protein stability index | 2.06 |
| NVESVGSIPVDQVVVRG [RPB3] | protein stability index | 2.3 |
| LLHERKLLNDLALENGE [NUT1] | protein stability index | 2.54 |

We now examine a further sequence.
Prompt line: Returns the measured protein stability index for the input sequence. Input: YKVDAEGKVTKLRRECS [RPS31]
Response line: 2.67
